- TGT: T1, human CCR8 (human, UniProt P51685 1-355)
- T1 construct: whole, on cells; also called hCCR8
- METHOD DESCRIPTION: FACS, competition with AF647-human CCL1 on HEK293-human CCR8 cells
METRIC NAME: pIC50
Hey, just a heads up that pIC50 is the negative log base 10 of the concentration in molar.

Examples with answers:
BINDER | VAL
262C2G7 (antibody, V domains shown, purified murine hybridoma antibody) VH: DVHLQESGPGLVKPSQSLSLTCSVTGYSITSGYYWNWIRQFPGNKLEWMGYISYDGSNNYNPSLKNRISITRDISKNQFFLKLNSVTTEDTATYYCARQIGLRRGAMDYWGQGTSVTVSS VL: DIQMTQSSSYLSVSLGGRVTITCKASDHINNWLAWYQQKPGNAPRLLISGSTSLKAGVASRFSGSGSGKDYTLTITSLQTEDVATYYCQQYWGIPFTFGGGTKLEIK | 9.20
160D1E3 (antibody, V domains shown, purified murine hybridoma antibody) VH: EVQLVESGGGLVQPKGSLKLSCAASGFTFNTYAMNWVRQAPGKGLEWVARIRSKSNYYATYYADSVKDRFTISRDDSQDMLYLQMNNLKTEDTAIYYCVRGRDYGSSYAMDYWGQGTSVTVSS VL: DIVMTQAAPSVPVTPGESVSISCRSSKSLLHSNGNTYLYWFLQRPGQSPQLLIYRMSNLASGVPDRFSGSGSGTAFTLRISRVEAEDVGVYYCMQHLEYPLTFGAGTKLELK | 9.05
273H2G6 (antibody, V domains shown, purified murine hybridoma antibody) VH: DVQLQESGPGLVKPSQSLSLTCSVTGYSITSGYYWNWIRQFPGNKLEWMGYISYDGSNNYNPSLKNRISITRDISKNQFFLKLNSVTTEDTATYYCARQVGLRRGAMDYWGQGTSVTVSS VL: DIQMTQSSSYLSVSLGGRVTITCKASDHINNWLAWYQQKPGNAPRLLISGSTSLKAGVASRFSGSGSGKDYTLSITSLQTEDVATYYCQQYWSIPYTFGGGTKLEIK | 9.11
191E12H8 (antibody, V domains shown, purified murine hybridoma antibody) VH: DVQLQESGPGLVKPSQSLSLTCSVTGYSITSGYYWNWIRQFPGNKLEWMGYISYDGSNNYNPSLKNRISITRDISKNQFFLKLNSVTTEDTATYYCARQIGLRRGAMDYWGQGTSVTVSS VL: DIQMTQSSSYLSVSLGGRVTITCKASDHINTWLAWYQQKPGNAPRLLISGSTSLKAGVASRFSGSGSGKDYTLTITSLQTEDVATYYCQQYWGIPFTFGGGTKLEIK | 9.03

Task item: Please give measured pIC50 of the following entry: 164G10D6 (antibody, V domains shown, purified murine hybridoma antibody) VH: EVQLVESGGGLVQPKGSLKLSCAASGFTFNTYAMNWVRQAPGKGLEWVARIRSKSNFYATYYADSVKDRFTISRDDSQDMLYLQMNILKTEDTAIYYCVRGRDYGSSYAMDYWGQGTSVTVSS VL: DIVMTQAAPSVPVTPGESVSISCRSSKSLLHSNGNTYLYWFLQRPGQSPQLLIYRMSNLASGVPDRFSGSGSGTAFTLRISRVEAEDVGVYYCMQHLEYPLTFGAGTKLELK
Reply: 9.22
